Would you kindly list cytotoxicity at 70.5 h for each of these compounds?
assay: Human HepG2 cell viability assay in 384 well format; type: toxicity, cell-based; design: dose 125 nL, time 70.5 hour; concentration not given beside the values; conditions: HepG2 cells, read-out: Inhibition
Give bare numbers, in %.

Example entries begin here.
- CS(=O)(=O)CC(=O)N1C[C@@H]2CN(Cc3ccoc3)CCO[C@@H]2C1: -12
- CC(=O)Cn1c(C)cc(=O)c2cc(F)ccc21: 1.19
- c1cc(CN2CCCC3(CCN(CC4CCCO4)CC3)C2)n[nH]1 (stereo not given): -6.85

Parameters: items (list). Returns: cytotoxicity at 70.5 h for each item.
1. CC(C)c1nn(C)c(N(C)C)c1CNCc1ccc2c(c1)OCO2
2. Cc1cccc(CN2C(=O)C[C@H]3[C@@H]2CCN3Cc2nccs2)n1

1: 2.49; 2: -22.3

Quick request: cytotoxicity at 70.5 h for each listed item, please.
1. Cc1cc2n(n1)CC(CNCc1cnn(C)c1)CN2 (stereo not given)
2. CC(C)OCCCNC(=O)CN1CCC(N2CCN(C)C2=O)CC1
3. CNC(=O)c1cn(C(C)(C)C)c2ncccc12

[-15, -18.5, -2.43]

Give one value of cytotoxicity at 70.5 h per listed compound.
1. CN(C)CCN(C)C(=O)c1cn(CC2CCCCC2)nn1
2. Cc1c(Cl)c(CN2CCCC2Cn2cncn2)nc2ccccc12 (stereo not given)
3. CSc1nnc(CNC(=O)Nc2ccccc2Br)n1C
4. O=C(Nc1cc(-c2ccncc2)no1)C1CC1
5. O=C(CC1=CSC2=NCCCN12)N1CCCCCC1c1ccco1 (stereo not given)
6. CCc1nc(C(=O)N2CCN(C)CC2)nn1-c1ccccc1Cl

-18.4
-6.2
-3.94
-10.1
9.09
16.1

Any idea what its cytotoxicity at 70.5 h is? The compound is CC(Cn1cccn1)NCc1nc(-c2cccs2)no1 (stereo not given)
3.96

----------
experiment: Human HepG2 cell viability assay in 384 well format; type: toxicity, cell-based; parameters: dose 125 nL, time 70.5 hour; concentration not given beside the values; settings: HepG2 cells, read-out: Inhibition
Measure: cytotoxicity at 70.5 h (%)
Give bare numbers, in %.

Some molecules with known cytotoxicity at 70.5 h results, for comparison:
* CCOc1c(CNCCCn2ccnc2)cc(Cl)cc1OC | -5.3
* Cc1nc(C)n(CC2CCCN2Cc2cn3ccsc3n2)n1 (stereo unspecified) | 3.39
* O=C1CC(N(C(=O)c2ccccc2Br)C2CC2)C(=O)N1 (stereo unspecified) | 2.23
* Cc1c[nH]c(C2CN(Cc3ccccc3C(=O)O)CCO2)n1 (stereo unspecified) | -1.83
* Cc1cc(N2CCc3cnc(C)nc3C2)n2nc(C(F)(F)F)nc2n1 | -108
* CC(C)c1cccc(CSc2nnc(CN3CCCC3=O)o2)n1 | -8
* CN(Cc1nnc(-c2ccco2)o1)C(C(N)=O)c1cccc(F)c1 (stereo unspecified) | 0.238
* Cc1ccccc1S(=O)(=O)N1CCC(c2[nH]ncc2C)C1 (stereo unspecified) | -8.88
* COc1ccccc1CC(=O)NC(CC(=O)O)c1ccc(C)cc1 (stereo unspecified) | -6.19
* O=C(NCCn1ccnc1C1CCOC1)c1cccnc1 (stereo unspecified) | -1.19

Give cytotoxicity at 70.5 h for all molecules that follow.
1. CC(O)CN1CCN(C(=O)CN(C)c2cnccn2)CC1 (stereo unspecified)
2. Cc1cnn(CC2CCCN2C(=O)c2csc(C(C)C)n2)c1 (stereo unspecified)
3. CN1CCC(CNC(=O)c2cccc(C(F)(F)F)c2)c2ccccc21 (stereo unspecified)
4. Cn1cc(C#N)cc1C(=O)NC1(C#N)CCSCC1
5. CN1CC2(CCN(C(=O)c3cccc(-n4cccn4)c3)CC2)OC1=O
6. Cc1noc([C@@H](C)NCc2cccc(Cl)c2)c1C(=O)O

1: -8.51; 2: 17.5; 3: 0.294; 4: -4.89; 5: 21.3; 6: 2.52

# return cytotoxicity at 70.5 h for each item in the list
1. Cc1cnc(N2CCC3(CC2)CC(NC(=O)N(C)C)CO3)nc1 (stereo unspecified)
2. CCc1nc(NCCc2nc(C)c(C)s2)c2cnn(C)c2n1
3. Cc1cccc(CNC2CCCc3c2cnn3Cc2ccccc2)c1 (stereo unspecified)
4. CN(C)C(=O)c1cnc(-c2ccc3c(c2)OCO3)s1
5. Cc1cc2n(n1)CC(CNCc1ccnc(-n3ccnc3C)c1)CN2 (stereo unspecified)
6. COCCn1ccc(=O)c(OCC(=O)Nc2ccc(OC)cc2)c1C

[-0.406, -7.53, -7.85, 6.77, 0.264, -12]

Please report cytotoxicity at 70.5 h for every entry that follows.
1. CCN(C(C)c1cccc(O)c1)S(=O)(=O)c1cccnc1 (stereo unspecified)
2. Cc1cn(CC(=O)Nc2cc(C(C)(C)C)nn2C)cn1
3. Cc1ccc(C(=O)N2C[C@H]3CC[C@@H]2CN(S(=O)(=O)N(C)C)C3)c(O)c1
4. CCOc1ccc(Cl)cc1C1CCCCN1 (stereo unspecified)
5. CN1CCOC(CN(C(=O)CCCn2cccn2)c2nccs2)C1 (stereo unspecified)
6. CN(Cc1cnccn1)C(=O)[C@@]12CNC[C@@H]1CN(Cc1ccccc1)C2

[5.84, -5.53, 14.2, -17.3, -1.25, -11.2]

Working through the 3 molecules below one at a time, give cytotoxicity at 70.5 h for each.
1. Cc1cc(CC(C)Nc2ncnc3cccc(F)c23)[nH]n1 (stereo unspecified)
2. Cc1cc(NCCc2nc(C)cs2)nc(-c2cccnc2)n1
3. Cc1ccc(CC(NC(=O)CCS(C)(=O)=O)c2ccccn2)cc1 (stereo unspecified)

1: 2.32; 2: -9.72; 3: 0.0206

----------
Consider the following compounds; for each one, report its cytotoxicity at 70.5 h.
assay: Human HepG2 cell viability assay in 384 well format; assay type: toxicity, cell-based; parameters: dose 125 nL, time 70.5 hour; concentration not given beside the values; conditions: HepG2 cells, read-out: Inhibition
Numbers only, in %.

Sample records with cytotoxicity at 70.5 h:
- CC(c1nc(C2CC2)no1)N(C)Cc1cccc(F)c1 (configuration not stated): -2.41
- O=C1CN(C(=O)c2cc3c(F)cc(Br)cc3[nH]2)CCN1: -4.59
- CC(=O)N1CCN(c2cc(C3CN(C)CCO3)nc(C)n2)CC1 (configuration not stated): -11.6
- O=C(c1ccc(-n2cccn2)nc1)N1CCCC(n2cccn2)C1 (configuration not stated): -7.62
- Cc1cccc(N(CCC(N)=O)C(=O)c2ccnc(C)n2)c1: -13.8

Dear colleague, could you please provide cytotoxicity at 70.5 h for the compounds listed below?
1. Cc1cnc(CN2CCCC2c2cnn(C)c2)cn1 (configuration not stated)
2. Cn1c(Cn2ccnc2)nnc1C1CCN(C(=O)c2ccccn2)CC1
3. Cc1cnc(N2CCC3(CCN(CC4CC4)C3=O)CC2)nc1
4. Cc1ccccc1-c1noc(CN2CCc3cncnc3C2)n1

[-10.3, 5.03, -9.16, -11.1]

----------
Field: cytotoxicity at 70.5 h. Provide a value for each of the compounds that follow.
experiment: Human HepG2 cell viability assay in 384 well format; type: toxicity, cell-based; design: dose 125 nL, time 70.5 hour; concentration not given beside the values; conditions: HepG2 cells, read-out: Inhibition
Give bare numbers, in %.

Here's what some known entries look like.
* Cn1ccc(CN2CCCN(c3nccs3)CC2)cc1=O | -1.81
* CCSC1(CNc2ncc(Br)cn2)CCOCC1 | -5.62
* O=C(c1cnccn1)N1C[C@@H]2CCN(c3cccnc3)C[C@@H]2C1 | -9.4
* CCN(C)c1ncnc2c1CCN(C(=O)N1CCCC1)CC2 | -12.4

Your task in this section: give cytotoxicity at 70.5 h for each listed record.
1. COc1ccc(CN2CCC3(CC2)CCN(c2ncccn2)CC3)cc1
2. O=c1c(NCCNCCO)c(N2CCN(c3ccc(F)cc3)CC2)c1=O
3. O=C(Cc1ccccc1Cl)Nc1ccn(CCN2CCOCC2)n1

-6.69
-7.08
-12.9

For every record below, what is its cytotoxicity at 70.5 h?
1. CN(C)c1nccc(N(C)Cc2nc3ccccc3n2C)n1
2. Cc1nn(C)c(C)c1C1CCCN1Cc1nc(C)c2ccccc2n1 (centres undefined)
3. OC(COCc1ccccc1)CSc1nnc2ccccn12 (centres undefined)
4. CC(C)c1cc(C(=O)N2CCN(c3ccc(F)c(Cl)c3)CC2)n(C)n1
5. Fc1ccc2nc([C@H]3CCNC3)[nH]c2c1
6. Cc1nn(C)c2nc(-c3ccccn3)nc(NCCCOC(C)C)c12

10.9
5.7
-5.06
-4.92
-0.112
-0.266

State the recorded cytotoxicity at 70.5 h for every item in the following list.
1. CCn1ccnc1CN1CCN(C(C)C)CC1C (centres undefined)
2. O=C(NCCc1cccs1)N1CCC[C@H]1CO
3. O=S(=O)(Cc1ccc(F)cc1)NCc1ccco1
4. Cc1csc(CNc2cnn(CC(C)C)c2)n1
5. Cc1cccc(C)c1OC1CN(C(=O)C2CCN(C(=O)N(C)C)CC2)C1
6. CCS(=O)(=O)N(C)C(=O)c1cc(C)n(-c2cccc(OC)c2)c1C

1: -3.75; 2: -6.62; 3: -2.47; 4: 3.86; 5: 29.8; 6: 27.9
